Tested on: Septoria tritici
Experiment: In vivo preventive test on Septoria tritici (wheat)
Conditions: 500 ppm of active ingredient; wheat plants; 24 days after contamination

| Molecule smiles | Efficacy [%] |
| --- | --- |
| Cn1nc(C(F)F)c(C(=O)N(Cc2ccccc2-c2ccoc2)C2CC2)c1F | 96 |
| Cn1cc(C(=O)N(Cc2cc(Cl)ccc2-c2cccs2)C2CC2)c(C(F)F)n1 | 90 |
| Cn1cc(-c2ccc(F)cc2CN(C(=O)c2c(C(F)F)nn(C)c2F)C2CC2)cn1 | 100 |
| Cn1nc(C(F)F)c(C(=O)N(Cc2ccc(Cl)cc2-c2csc3ccccc23)C2CC2)c1F | 88 |
| Cn1nc(C(F)F)c(C(=O)N(Cc2ccccc2-c2ccsc2Cl)C2CC2)c1F | 100 |
| Cc1cscc1-c1ccc(F)cc1CN(C(=O)c1c(C(F)F)nn(C)c1F)C1CC1 | 95 |
| Cn1nc(C(F)F)c(C(=O)N(Cc2ccccc2-c2ccsc2)C2CC2)c1F | 97 |
| Cn1nc(C(F)F)c(C(=O)N(Cc2cc(Cl)ccc2-c2ccoc2)C2CC2)c1F | 97 |
